- Tested system: human α9α10 nAChR (Homo sapiens, UniProt Q9GZZ6+Q9UGM1)
- Sequence (Q9UGM1 26-479 limits assumed): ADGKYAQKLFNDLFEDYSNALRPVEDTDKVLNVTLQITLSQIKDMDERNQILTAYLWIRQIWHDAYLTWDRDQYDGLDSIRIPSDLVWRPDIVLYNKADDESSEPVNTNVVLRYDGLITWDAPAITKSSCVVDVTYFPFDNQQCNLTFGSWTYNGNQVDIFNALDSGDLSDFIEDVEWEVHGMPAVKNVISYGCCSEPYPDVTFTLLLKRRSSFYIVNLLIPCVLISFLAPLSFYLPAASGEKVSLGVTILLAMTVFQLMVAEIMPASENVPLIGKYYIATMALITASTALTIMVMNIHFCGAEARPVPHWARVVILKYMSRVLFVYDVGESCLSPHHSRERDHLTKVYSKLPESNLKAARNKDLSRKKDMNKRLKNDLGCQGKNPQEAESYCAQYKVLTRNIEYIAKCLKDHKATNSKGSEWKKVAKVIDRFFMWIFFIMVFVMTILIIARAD
- Sequence (Q9GZZ6 25-450 limits assumed): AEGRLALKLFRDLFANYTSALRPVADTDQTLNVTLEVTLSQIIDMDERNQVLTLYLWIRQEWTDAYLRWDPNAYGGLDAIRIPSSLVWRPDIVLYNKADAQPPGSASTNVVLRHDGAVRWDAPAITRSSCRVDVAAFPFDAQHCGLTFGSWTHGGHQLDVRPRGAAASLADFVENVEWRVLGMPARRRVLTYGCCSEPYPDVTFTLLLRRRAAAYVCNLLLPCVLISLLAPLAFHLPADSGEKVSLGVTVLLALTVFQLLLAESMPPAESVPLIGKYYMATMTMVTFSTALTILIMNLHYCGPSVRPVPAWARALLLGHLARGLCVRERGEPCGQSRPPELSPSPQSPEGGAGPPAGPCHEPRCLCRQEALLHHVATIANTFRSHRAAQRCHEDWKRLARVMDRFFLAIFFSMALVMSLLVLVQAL
- Protocol: cell-based
Bridge positions count the residues as written; N and C are the ends. Square brackets hold non-standard residues; d marks the D form. Triazole bridges read from a SMILES are 1,4-linked. Peptide text beside a SMILES is read from it. Orn(N3) = [N-]=[N+]=NCCC[C@H](N)C(=O)O; NMeR = CN[C@@H](CCCNC(=N)N)C(=O)O; Cit = NC(=O)NCCC[C@H](N)C(=O)O; Pra = C#CC[C@H](N)C(=O)O
Property name: IC50

compound="C[C@@H](O)[C@@H]1NC(=O)[C@@H]2Cc3cn(nn3)CCC[C@@H](C(=O)N[C@H](CCCNC(=N)N)C(=O)O)NC(=O)[C@H](CCC(N)=O)NC(=O)[C@H](Cc3c[nH]c4ccccc34)NC(=O)[C@H](CCCNC(N)=O)NC(=O)[C@H](CSSC[C@H](NC(=O)CN)C(=O)N2)NC(=O)[C@H](CCCNC(=N)N)NC(=O)[C@@H]2CCCN2C(=O)[C@H](CC(=O)O)NC1=O [Is] (H-GC[Pra]TDPRC[Cit]WQ[Orn(N3)][dR]-OH; disulfide 2-8; triazole 3-12)" tested_system="human α9α10 nAChR (Homo sapiens, UniProt Q9GZZ6+Q9UGM1)" experimental_value="0.059 µM"
compound="C[C@@H](O)[C@@H]1NC(=O)[C@@H]2Cc3cn(nn3)CCC[C@@H](C(=O)N(C)[C@@H](CCCNC(=N)N)C(=O)O)NC(=O)[C@H](CCC(N)=O)NC(=O)[C@H](Cc3c[nH]c4ccccc34)NC(=O)[C@H](CCCNC(N)=O)NC(=O)[C@H](CSSC[C@H](NC(=O)CN)C(=O)N2)NC(=O)[C@H](CCCNC(=N)N)NC(=O)[C@@H]2CCCN2C(=O)[C@H](CC(=O)O)NC1=O [Iv] (H-GC[Pra]TDPRC[Cit]WQ[Orn(N3)][NMeR]-OH; disulfide 2-8; triazole 3-12)" tested_system="human α9α10 nAChR (Homo sapiens, UniProt Q9GZZ6+Q9UGM1)" experimental_value="~0.1 µM"

###

- Tested system: human α9α10 nAChR (Homo sapiens, UniProt Q9GZZ6+Q9UGM1)
- Protocol: cell-based
Numbered stars: 1 amine (or outer) side, 2 acyl side, 3 side chain; on linkers, the order of the positions; unused ones are H or OH. Bridge positions count the residues as written; N and C are the ends. Square brackets hold non-standard residues; d marks the D form. Triazole bridges read from a SMILES are 1,4-linked. Peptide text beside a SMILES is read from it. Gly(αS-SH) = O=C([C@@H](N[*:1])S[*:3])[*:2]; Tyr(3-I) = N[C@@H](Cc1ccc(O)c(I)c1)C(=O)O; Orn(N3) = [N-]=[N+]=NCCC[C@H](N)C(=O)O; Cit = NC(=O)NCCC[C@H](N)C(=O)O; Hpra = C#CCC[C@H](N)C(=O)O; Pra = C#CC[C@H](N)C(=O)O
Catalogue of IC50 values
Property name: IC50 (nM)

molecule="C[C@@H](O)[C@@H]1NC(=O)[C@@H]2Cc3cn(nn3)CCC[C@@H](C(=O)O)NC(=O)[C@H](CCC(N)=O)NC(=O)[C@H](Cc3c[nH]c4ccccc34)NC(=O)[C@H](CCCNC(N)=O)NC(=O)[C@H](CSSC[C@H](NC(=O)CN)C(=O)N2)NC(=O)[C@H](CCCNC(=N)N)NC(=O)[C@@H]2CCCN2C(=O)[C@H](CC(=O)O)NC1=O [Iq] (H-GC[Pra]TDPRC[Cit]WQ[Orn(N3)]-OH; disulfide 2-8; triazole 3-12)" value_prefix=> experimental_value=300
molecule="C[C@@H](O)[C@@H]1NC(=O)[C@@H]2Cc3cn(nn3)CCC[C@@H](C(=O)N[C@@H](Cc3ccc(O)cc3)C(=O)O)NC(=O)[C@H](CCC(N)=O)NC(=O)[C@H](Cc3ccc(O)c(I)c3)NC(=O)[C@H](CCCNC(N)=O)NC(=O)[C@H](CSSC[C@H](NC(=O)CN)C(=O)N2)NC(=O)[C@H](CCCNC(=N)N)NC(=O)[C@@H]2CCCN2C(=O)[C@H](CC(=O)O)NC1=O [Ib] (H-GC[Pra]TDPRC[Cit][Tyr(3-I)]Q[Orn(N3)]Y-OH; disulfide 2-8; triazole 3-12)" value_prefix== experimental_value=37
molecule="C[C@@H](O)[C@@H]1NC(=O)[C@@H]2Cc3cn(nn3)CCC[C@@H](C(=O)N[C@H](Cc3ccc(O)cc3)C(=O)O)NC(=O)[C@H](CCC(N)=O)NC(=O)[C@H](Cc3c[nH]c4ccccc34)NC(=O)[C@H](CCCNC(N)=O)NC(=O)[C@H](CSSC[C@H](NC(=O)CN)C(=O)N2)NC(=O)[C@H](CCCNC(=N)N)NC(=O)[C@@H]2CCCN2C(=O)[C@H](CC(=O)O)NC1=O [Im] (H-GC[Pra]TDPRC[Cit]WQ[Orn(N3)][dY]-OH; disulfide 2-8; triazole 3-12)" value_prefix== experimental_value=50
molecule="C[C@@H](O)[C@@H]1NC(=O)[C@@H]2Cc3cn(nn3)CCC[C@@H](C(=O)N[C@@H](Cc3ccc(O)cc3)C(N)=O)NC(=O)[C@H](CCC(N)=O)NC(=O)[C@H](Cc3ccc(O)c(I)c3)NC(=O)[C@H](CCCNC(N)=O)NC(=O)[C@H](CSSC[C@H](NC(=O)CN)C(=O)N2)NC(=O)[C@H](CCCNC(=N)N)NC(=O)[C@@H]2CCCN2C(=O)[C@H](CC(=O)O)NC1=O [Ib′] (H-GC[Pra]TDPRC[Cit][Tyr(3-I)]Q[Orn(N3)]Y-NH2; disulfide 2-8; triazole 3-12)" value_prefix== experimental_value=48
molecule=C[C@@H](O)[C@@H]1NC(=O)[C@@H]2Cn3cc(nn3)CCC[C@@H](C(=O)N[C@@H](Cc3ccc(O)cc3)C(=O)O)NC(=O)[C@H](CCC(N)=O)NC(=O)[C@H](Cc3c[nH]c4ccccc34)NC(=O)[C@H](CCCNC(N)=O)NC(=O)[C@H](CSSC[C@H](NC(=O)CN)C(=O)N2)NC(=O)[C@H](CCCNC(=N)N)NC(=O)[C@@H]2CCCN2C(=O)[C@H](CC(=O)O)NC1=O value_prefix== experimental_value=16.6
molecule="C[C@@H](O)[C@@H]1NC(=O)[C@H]2NC(=O)[C@@H](NC(=O)CN)Cc3cn(nn3)CCC[C@H](NC(=O)[C@H](CCCNC(=N)N)NC(=O)[C@@H]3CCCN3C(=O)[C@H](CC(=O)O)NC1=O)C(=O)N[C@@H](CCCNC(N)=O)C(=O)N[C@@H](Cc1ccc(O)c(I)c1)C(=O)N[C@@H](CCC(N)=O)C(=O)N[C@H](C(=O)N[C@@H](Cc1ccc(O)cc1)C(N)=O)CSS2 [Ic] (H-G[Pra][Gly(αS-SH)]TDPR[Orn(N3)][Cit][Tyr(3-I)]QCY-NH2; triazole 2-8; disulfide 3-12)" value_prefix== experimental_value=152
molecule="C[C@@H](O)[C@@H]1NC(=O)[C@@H]2CCc3cn(nn3)CCC[C@@H](C(=O)N[C@@H](Cc3ccc(O)cc3)C(=O)O)NC(=O)[C@H](CCC(N)=O)NC(=O)[C@H](Cc3c[nH]c4ccccc34)NC(=O)[C@H](CCCNC(N)=O)NC(=O)[C@H](CSSC[C@H](NC(=O)CN)C(=O)N2)NC(=O)[C@H](CCCNC(=N)N)NC(=O)[C@@H]2CCCN2C(=O)[C@H](CC(=O)O)NC1=O [Ig] (H-GC[Hpra]TDPRC[Cit]WQ[Orn(N3)]Y-OH; disulfide 2-8; triazole 3-12)" value_prefix== experimental_value=19
molecule="C[C@@H](O)[C@@H]1NC(=O)[C@@H]2CCC(=O)NCCCC[C@@H](C(=O)N[C@@H](Cc3ccc(O)cc3)C(N)=O)NC(=O)[C@H](CCC(N)=O)NC(=O)[C@H](Cc3ccc(O)c(I)c3)NC(=O)[C@H](CCCNC(N)=O)NC(=O)[C@H](CSSC[C@H](NC(=O)CN)C(=O)N2)NC(=O)[C@H](CCCNC(=N)N)NC(=O)[C@@H]2CCCN2C(=O)[C@H](CC(=O)O)NC1=O [Iw] (H-GCETDPRC[Cit][Tyr(3-I)]QKY-NH2; disulfide 2-8; lactam 3-12)" value_prefix=> experimental_value=300

###

- Tested system: human α9α10 nAChR (Homo sapiens, UniProt Q9GZZ6+Q9UGM1)
- Protocol: cell-based
pIC50: −log10 of the molar value. Numbered stars: 1 amine (or outer) side, 2 acyl side, 3 side chain; on linkers, the order of the positions; unused ones are H or OH. Bridge positions count the residues as written; N and C are the ends. Square brackets hold non-standard residues; d marks the D form. Triazole bridges read from a SMILES are 1,4-linked. Peptide text beside a SMILES is read from it. Gly(αS-SH) = O=C([C@@H](N[*:1])S[*:3])[*:2]; Tyr(3-I) = N[C@@H](Cc1ccc(O)c(I)c1)C(=O)O; Orn(N3) = [N-]=[N+]=NCCC[C@H](N)C(=O)O; Cit = NC(=O)NCCC[C@H](N)C(=O)O; Pra = C#CC[C@H](N)C(=O)O
Property name: pIC50

molecule="C[C@@H](O)[C@@H]1NC(=O)[C@H]2NC(=O)[C@@H](NC(=O)CN)CCCn3cc(nn3)C[C@H](NC(=O)[C@H](CCCNC(=N)N)NC(=O)[C@@H]3CCCN3C(=O)[C@H](CC(=O)O)NC1=O)C(=O)N[C@@H](CCCNC(N)=O)C(=O)N[C@@H](Cc1ccc(O)c(I)c1)C(=O)N[C@@H](CCC(N)=O)C(=O)N[C@H](C(=O)N[C@@H](Cc1ccc(O)cc1)C(N)=O)CSS2 [Id] (H-G[Orn(N3)][Gly(αS-SH)]TDPR[Pra][Cit][Tyr(3-I)]QCY-NH2; triazole 2-8; disulfide 3-12)" value_prefix=≤ experimental_value=6.00
molecule="C[C@@H](O)[C@@H]1NC(=O)[C@@H]2Cc3cn(nn3)CCC[C@@H](C(=O)N[C@@H](Cc3ccc(O)cc3)C(=O)N[C@H](Cc3ccc(O)cc3)C(=O)O)NC(=O)[C@H](CCC(N)=O)NC(=O)[C@H](Cc3c[nH]c4ccccc34)NC(=O)[C@H](CCCNC(N)=O)NC(=O)[C@H](CSSC[C@H](NC(=O)CN)C(=O)N2)NC(=O)[C@H](CCCNC(=N)N)NC(=O)[C@@H]2CCCN2C(=O)[C@H](CC(=O)O)NC1=O [Io] (H-GC[Pra]TDPRC[Cit]WQ[Orn(N3)]Y[dY]-OH; disulfide 2-8; triazole 3-12)" value_prefix== experimental_value=7.23
molecule=C[C@@H](O)[C@@H]1NC(=O)[C@@H]2CCCc3cn(nn3)C[C@@H](C(=O)N[C@@H](Cc3ccc(O)cc3)C(=O)O)NC(=O)[C@H](CCC(N)=O)NC(=O)[C@H](Cc3c[nH]c4ccccc34)NC(=O)[C@H](CCCNC(N)=O)NC(=O)[C@H](CSSC[C@H](NC(=O)CN)C(=O)N2)NC(=O)[C@H](CCCNC(=N)N)NC(=O)[C@@H]2CCCN2C(=O)[C@H](CC(=O)O)NC1=O value_prefix== experimental_value=6.82

Data credit: patent US11612661B2
